All figures here come from patent US20060263802A1.

System: human monoclonal antibody CRJB
Assay type: binding
Kindly apply the following: 1.0 if Binding of CRJB (10 μg/ml) to looped/cyclic peptide (PEPSCAN-ELISA signal) is less than 80, 0.0 in every other case.

INPUT SEQUENCE	LABEL VALUE
NPRLGMSCDIFTNSR	0.0
TPDACRAAYNWKMAG	0.0
DKLGPWSPIDIHHLS	1.0
SSTYCSTNHDYTIWM	1.0
SGFSYMELKVGYILA	0.0

Field: below-cutoff. Rule: recorded Binding of CRJB (10 μg/ml) to looped/cyclic peptide (PEPSCAN-ELISA signal) strictly less than 80. Subject: VVTEAENYTNFVGYV
1.0

Field: below-cutoff. Rule: recorded Binding of CRJB (10 μg/ml) to looped/cyclic peptide (PEPSCAN-ELISA signal) strictly less than 80. Subject: TYCSTNHDYTIWMPE
0.0

Field: below-cutoff. Rule: recorded Binding of CRJB (10 μg/ml) to looped/cyclic peptide (PEPSCAN-ELISA signal) strictly less than 80. Subject: YMELKVGYILAIKMN
0.0

Field: below-cutoff. Rule: recorded Binding of CRJB (10 μg/ml) to looped/cyclic peptide (PEPSCAN-ELISA signal) strictly less than 80. Subject: ACRAAYNWKMAGDPR
0.0

Field: below-cutoff. Rule: recorded Binding of CRJB (10 μg/ml) to looped/cyclic peptide (PEPSCAN-ELISA signal) strictly less than 80. Subject: GYILAIKMNGFTCTG
1.0

Field: below-cutoff. Rule: recorded Binding of CRJB (10 μg/ml) to looped/cyclic peptide (PEPSCAN-ELISA signal) strictly less than 80. Subject: NSRGKRASKGSETCG
1.0

Field: below-cutoff. Rule: recorded Binding of CRJB (10 μg/ml) to looped/cyclic peptide (PEPSCAN-ELISA signal) strictly less than 80. Subject: MSCDIFTNSRGKRAS
1.0

Field: below-cutoff. Rule: recorded Binding of CRJB (10 μg/ml) to looped/cyclic peptide (PEPSCAN-ELISA signal) strictly less than 80. Subject: KFPIYTILDKLGPWS
1.0

Field: below-cutoff. Rule: recorded Binding of CRJB (10 μg/ml) to looped/cyclic peptide (PEPSCAN-ELISA signal) strictly less than 80. Subject: PIYTILDKLGPWSPI
1.0

Field: below-cutoff. Rule: recorded Binding of CRJB (10 μg/ml) to looped/cyclic peptide (PEPSCAN-ELISA signal) strictly less than 80. Subject: LSGFSYMELKVGYIL
1.0

Field: below-cutoff. Rule: recorded Binding of CRJB (10 μg/ml) to looped/cyclic peptide (PEPSCAN-ELISA signal) strictly less than 80. Subject: HNPYPDYRWLRTVKT
1.0

Field: below-cutoff. Rule: recorded Binding of CRJB (10 μg/ml) to looped/cyclic peptide (PEPSCAN-ELISA signal) strictly less than 80. Subject: FPSGKCSGVAVSSTY
1.0
